Could you please report measured fold change for the items listed next?
- Assay procedure: viability loss with induced miR-34 in A549 – imaging, A549 dox-inducible miR-34, nuclei and caspase counts, primary screen (AID 1347080)
- Setup conditions: A549 miR-34 inducible, Hoechst nuclei count, 48 h; stronger effect = lower value; cell number ratio, induced over uninduced
Give bare numbers.

// below: answered compounds
• CCCCC[C@H](O)C/C=C1/C(=O)C[C@H](O)[C@@H]1C/C=C\CCCC(=O)O = 0.935
• O=C(NCCCN1CCCCCC1)C(c1ccccc1)C1CCCCC1 (stereo not given) = 0.949
• N[C@@H](Cc1cc(CP(=O)(O)O)cc(-c2ccccc2Cl)c1)C(=O)O = 0.967
• O=P(O)(O)OC1C(O)C(OP(=O)(O)O)C(O)C(OP(=O)(O)O)C1O (stereo not given) = 0.967
• CCCCCCNC(=O)Nc1ccc(S(=O)(=O)Nc2ccc(CCNC[C@H](O)COc3ccc(O)cc3)cc2)cc1 = 0.938
• c1ccc(COCCCc2cnc[nH]2)cc1 = 0.883
• CN1Cc2c(C(=O)OC(C)(C)C)ncn2-c2ccsc2C1=O = 0.89
• CCCCCCCCCC(=O)N[C@@H](CN1CCOCC1)[C@@H](O)c1ccccc1 = 0.924
• O=C(N/N=C/c1ccccc1O)c1ccccc1O = 0.984
• O=c1[nH]cc(CO)c(=O)[nH]1 = 1.01

Please state, for each entry, its recorded fold change.
1. CCCCCCCC/C=C\CCCCCCCC(=O)N[C@H](CO)Cc1ccc(O)cc1
2. CC(C)(O)CC(=O)NCCn1ccc2ncnc(Nc3ccc(Oc4cccc(C(F)(F)F)c4)c(Cl)c3)c21
3. CCCCCC1OC(O)CC1SC[C@H](NC(C)=O)C(=O)O (stereo not given in full)
4. CC1(C)C(=O)N(CCN2CCC(C(=O)c3ccc(F)cc3)CC2)c2ccccc21
5. C[C@@H]1O[C@@]2(CS1)CN1CCC2CC1 (racemic)

a:
1.03
0.965
0.93
0.986
0.892

* * *

- Assay procedure: JHH-DIPG-1 glioma cell viability, MIPE5.0 library, CellTiter-Glo luminescence, qHTS (AID 1347067);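 further: cells exposed to compound for 48 hours before readout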
- Setup conditions: JHH-DIPG-1 glioma viability, CellTiter-Glo ATP luminescence
Records with an inconclusive call do not appear. Calls of active or inactive are those of the source. Cut-off not given; nearly all actives show AC50 up to about 26 µM.
Please reply with one of these outcomes: T = active, F = inactive

- CN1CC[C@@H](NC(=O)Nc2ccc(C#N)cc2)C[C@@H]1c1nc2ccccc2[nH]1: F
- CC(C)OC(=O)C1=CN(C(=O)c2ccc(F)c(F)c2)CC(C)(C)c2c1[nH]c1ccccc21: F
- Oc1cccc(-c2nc(N3CCOCC3)c3oc4ncccc4c3n2)c1: T
- CC(C)(O)CS(=O)(=O)Nc1ccc2c(c1)CCN(C(=O)COc1cccnc1)C2: T
- Cc1ccc2nc(NCCN)c3ncc(C)n3c2c1: T
- O=C(Nc1cn[nH]c1-c1nc2ccc(CN3CCOCC3)cc2[nH]1)NC1CC1: T
- COc1cc(O)c2c(c1)C1OC1C[C@H](O)[C@H](O)C(=O)/C=C\C[C@H](C)OC2=O (stereo partly specified): T
- Cn1c2cc(S(C)=O)sc2c2cnn(Cc3cccc(N)c3)c(=O)c21 (stereo unspecified): F

q: Write down the call the test reported for this compound. Item: COc1ncc(Nc2ncc([C@H](C)N3CCN(S(C)(=O)=O)CC3)cc2-c2nc(C)nc(N)n2)cc1F
a: T

q: Also need C[C@@H](NC(=O)c1ncnc(N)c1Cl)c1ncc(C(=O)Nc2cc(C(F)(F)F)c(Cl)cn2)s1 , thanks.
a: T

q: Also need O=c1c(O)c(-c2cc(O)c(O)c(O)c2)oc2cc(O)cc(O)c12 , thanks.
a: F

q: Also need Cc1ccc(S(=O)(=O)Nc2cc(Cl)ccc2C(=O)Nc2nc(-c3ccccc3)cs2)cc1 , thanks.
a: T

q: Also need CC[C@@H](Oc1cccc(CN(CCCOc2ccc(OC)cc2)c2nc3ccccc3o2)c1)C(=O)O , thanks.
a: F

* * *

- Assay procedure: viability loss in pontine glioma line – cell-based, SU-DIPG-XVII, MIPE5.0, CellTiter-Glo, qHTS, dose response (AID 1347060);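 on AC50: cells exposed to compound for 48 hours before viability readout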
- Setup conditions: CellTiter-Glo ATP luminescence
Inconclusive results are not listed. The source made the active and inactive calls. The limit is not given here; nearly all actives have AC50 up to about 26 µM.
Please reply with one of these outcomes: Y = active, N = inactive

Solved entries (count: 5):
* C=CC(=O)Nc1cccc(Nc2nc(Nc3ccc(OCCOC)cc3)ncc2F)c1 | Y
* COc1ccc(S(=O)(=O)Nc2cc(-c3c(O)ccc4ccccc34)c(O)c3ccccc23)cc1 | Y
* CC1=C[C@@H]2[C@H]([C@@H](O)C[C@@]3(C)[C@H]2C[C@@H](C)[C@]3(O)C(=O)CO)[C@@]2(C)Cc3cnn(-c4ccccc4)c3C=C12 | Y
* O=C(CN1C(=O)C2(CCCC2)NC[C@H]1c1cc(F)cc(F)c1)Nc1ccc2c(c1)C[C@@]1(C2)C(=O)Nc2ncccc21 | N
* NCC(=O)Nc1cncc(-c2nn3c(=O)cc(N4CCNCC4)nc3s2)c1 | N

q: Write down the call the test reported for this compound. Item: CS(=O)(=O)N1CCC(NC(=O)c2[nH]ncc2NC(=O)c2c(Cl)cccc2Cl)CC1
a: Y

q: Also need CC(C)c1noc(N2CCC(COc3ccc(-c4ccc(S(C)(=O)=O)cc4)nc3)CC2)n1 , thanks.
a: N

q: Also need COC(=O)N1CC2(CC2)C[C@H](C(=O)NO)[C@H]1C(=O)N1CCN(c2ccccc2)CC1 , thanks.
a: N

* * *

- Assay procedure: viability loss in pontine glioma line – cell-based, SU-DIPG-XVII, MIPE5.0, CellTiter-Glo, qHTS, dose response (AID 1347060);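 on AC50: cells exposed to compound for 48 hours before viability readout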
- Setup conditions: CellTiter-Glo ATP luminescence
Results filed as inconclusive are left out. The source made the active and inactive calls. Cut-off not given; nearly all actives show AC50 up to about 26 µM.
Please reply with one of these outcomes: active, inactive

• CC(=O)Nc1cc(Oc2ccc3c(nc(Nc4ccc(F)cc4F)n3C)c2C)ccn1 = active
• COc1ccc2[nH]c3c(c2c1)CCN[C@]31CS[C@@H]2c3c(OC(C)=O)c(C)c4c(c3[C@H](COC1=O)N1[C@@H]2[C@H]2c3c(cc(C)c(OC)c3O)C[C@@H]([C@@H]1O)N2C)OCO4 = active
• COc1cc2c(cc1OC)CN(CCc1ccc(-n3nnc(-c4cc(OC)c(OC)cc4NC(=O)c4cc(=O)c5ccccc5o4)n3)cc1)CC2 = inactive
• Cc1cccc(Nc2nc(N[C@@H]3CCCC[C@@H]3N)ncc2C(N)=O)c1 = active
• O=C(/C=C/c1ccc2ccc(C(F)(F)F)cc2n1)c1ccncc1 = active

q: Write down the call the test reported for this compound. Item: CCOC(=O)[C@@]1(CCCCCCOc2ccc(Cl)cc2)CO1
a: inactive

q: Also need Cc1[nH]cnc1CN1CCN(C(=O)N[C@@H](CC(C)C)C(=O)O)[C@@H](Cc2ccccc2)C1=O , thanks.
a: inactive

q: Also need COc1cc(=C2C=c3ccccc3=N2)[nH]/c1=C/c1[nH]c(C)cc1C , thanks.
a: active

q: Also need COC(=O)C1=C(C)NC(c2ncc(F)cc2F)=N[C@H]1c1ccc(F)cc1Cl , thanks.
a: active

* * *

- Assay procedure: compounds altering HSF1 focus formation in cells – imaging, Selleck Cancer Library (AID 1347162)
- Setup conditions: human cells, HSF1 nuclear foci imaging, at 10 µM; measured here: cell number
Observation type: cell count
Give bare numbers.

// below: answered compounds
- CN(C)CCN(C)C(=O)c1ccc(NC(=O)Nc2ccc(-c3nc(N4CCOCC4)c4ccn(CC(F)(F)F)c4n3)cc2)cc1: 7060
- Cc1[nH]c(/C=C2\C(=O)Nc3ccc(S(=O)(=O)N(C)c4cccc(Cl)c4)cc32)c(C)c1C(=O)N1CCN(C)CC1: 7040

Please state, for each entry, its recorded cell count.
1. CN(C)CC[C@H](CSc1ccccc1)Nc1ccc(S(=O)(=O)NC(=O)c2ccc(N3CCN(Cc4ccccc4-c4ccc(Cl)cc4)CC3)cc2)cc1[N+](=O)[O-]
2. CC(C)OC(=O)C1=CN(C(=O)c2ccc(F)c(F)c2)CC(C)(C)c2c1[nH]c1ccccc21

a:
1: 6950; 2: 7100

* * *

- Assay procedure: drug combination growth inhibition, ovarian cancer – cell-based, oncology-focused library, rucaparib conditional, profiling panel (AID 1508598)
- Setup conditions: patient-derived ovarian cancer cells, CellTiter-Glo viability, 144 h; at 0.00488 µM; OCI-P5x cells; with rucaparib 20 µM; 100% = cells with rucaparib alone
Activity calls are given as the source filed them.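 The calls were made as follows: active = normalized viability below 100% at a tested concentration; inactive = the rest.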
Please reply with one of these outcomes: active, inactive

Solved entries (count: 3):
• CNc1nc(-c2ccc3c(N)n[nH]c3c2)cc(N2C[C@@H](C(=O)NC3CCCCC3)CC[C@H]2C)n1 = inactive
• Cc1cccc(-c2[nH]c(C(C)(C)C)nc2-c2ccc3nccnc3c2)n1 = active
• Nc1nc(Nc2ccc(S(N)(=O)=O)cc2)nn1C(=O)c1c(F)cccc1F = active

q: Write down the call the test reported for this molecule. Item: COc1ncc(-c2ccc3nccc(-c4ccnnc4)c3c2)cc1NS(=O)(=O)c1ccc(F)cc1F
a: active

q: Also need CN(C)Cc1ccc(-c2nc3cccc4c3n2CCNC4=O)cc1 , thanks.
a: inactive

q: Also need COc1ccc(-c2ccc3c(N4CCOCC4)nc(N4C[C@@H](C)O[C@@H](C)C4)nc3n2)cc1CO , thanks.
a: inactive

q: Also need CCOc1cc2ncc(C#N)c(Nc3ccc(F)c(Cl)c3)c2cc1NC(=O)/C=C/CN(C)C , thanks.
a: inactive

q: Also need Cn1cnc(=N)c2[nH]cnc21 , thanks.
a: inactive

q: Also need Cn1cc(-c2ccc3c(c2)CCN3C(=O)Cc2cccc(C(F)(F)F)c2)c2c(N)ncnc21 , thanks.
a: active

q: Also need CC(C)(C)c1cnc(CSc2cnc(NC(=O)C3CCNCC3)s2)o1 , thanks.
a: inactive

q: Also need O=C(Nc1ccc(OC(F)(F)F)cc1)c1sccc1NCc1ccnc2ccccc12 , thanks.
a: active

q: Also need Cc1ccc2c(=O)c3cccc(CC(=O)O)c3oc2c1C , thanks.
a: inactive
